Test Details: Mouse pharmacokinetics, single i.v. dose
Assay type: in vivo
Condition Context: plasma, iv, single i.v. dose of SH-11008 3 mg/kg, male ICR mice
Measure: Tmax (min)
# number only, unit min dropped from output

So for COc1ccc(CC2COc3cc(OC)c(OC)c(OC)c3C2=O)cc1O (stereo not shown) [SH-11008] , the logged Tmax turned out to be 5

* * *

Test Details: Metabolic stability of SH-11008 in human liver S9 fractions
Assay type: in vitro ADME
Condition Context: human, liver S9 fractions; SH-11008 1 µM, HLS9 1 mg protein/mL, mixture of NADPH, UDPGA and PAPS (1 mM), 37 °C
Measure: half-life at 1 µM (s)
# number only, unit s dropped from output

So for COc1ccc(CC2COc3cc(OC)c(OC)c(OC)c3C2=O)cc1O (stereo not shown) , the logged half-life at 1 µM turned out to be 36
